Listing: remaining activity at 50 µM of selected compounds
target: IR-Grb14 interaction (Homo sapiens); construct: a vector encoding the insulin receptor fused to the luciferase (IR-Luc); made in house; host or cells: HEK293T (transfected); IR-Luc was partially purified on wheat germ lectin sepharose; Grb14-YFP was used as crude lysate; test: IR-Luc/Grb14-YFP BRET technique in a cell-free system; format: binding; conditions: read-out: % BRET signal/DMSO control, 50 μM; insulin stimulation (100 nM)
Sequence (P06213 763-1382 limits assumed): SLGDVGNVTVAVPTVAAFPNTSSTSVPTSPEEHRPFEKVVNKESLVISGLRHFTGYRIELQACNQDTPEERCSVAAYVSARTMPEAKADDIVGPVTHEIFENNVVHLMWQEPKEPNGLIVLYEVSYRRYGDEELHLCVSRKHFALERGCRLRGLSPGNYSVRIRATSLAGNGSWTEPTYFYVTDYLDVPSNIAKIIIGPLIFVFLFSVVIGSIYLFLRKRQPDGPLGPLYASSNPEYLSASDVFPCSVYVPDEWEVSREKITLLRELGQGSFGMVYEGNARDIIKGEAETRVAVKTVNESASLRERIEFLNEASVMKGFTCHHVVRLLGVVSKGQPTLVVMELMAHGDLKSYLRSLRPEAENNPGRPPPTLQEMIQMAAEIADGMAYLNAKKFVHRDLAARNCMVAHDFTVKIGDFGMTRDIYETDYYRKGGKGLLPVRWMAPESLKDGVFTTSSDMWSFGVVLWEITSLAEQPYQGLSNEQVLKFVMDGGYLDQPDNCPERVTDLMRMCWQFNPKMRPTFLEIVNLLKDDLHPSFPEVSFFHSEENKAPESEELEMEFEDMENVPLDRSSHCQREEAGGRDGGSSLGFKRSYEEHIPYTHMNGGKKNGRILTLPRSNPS
Sequence (P06213 28-758 partner limits assumed): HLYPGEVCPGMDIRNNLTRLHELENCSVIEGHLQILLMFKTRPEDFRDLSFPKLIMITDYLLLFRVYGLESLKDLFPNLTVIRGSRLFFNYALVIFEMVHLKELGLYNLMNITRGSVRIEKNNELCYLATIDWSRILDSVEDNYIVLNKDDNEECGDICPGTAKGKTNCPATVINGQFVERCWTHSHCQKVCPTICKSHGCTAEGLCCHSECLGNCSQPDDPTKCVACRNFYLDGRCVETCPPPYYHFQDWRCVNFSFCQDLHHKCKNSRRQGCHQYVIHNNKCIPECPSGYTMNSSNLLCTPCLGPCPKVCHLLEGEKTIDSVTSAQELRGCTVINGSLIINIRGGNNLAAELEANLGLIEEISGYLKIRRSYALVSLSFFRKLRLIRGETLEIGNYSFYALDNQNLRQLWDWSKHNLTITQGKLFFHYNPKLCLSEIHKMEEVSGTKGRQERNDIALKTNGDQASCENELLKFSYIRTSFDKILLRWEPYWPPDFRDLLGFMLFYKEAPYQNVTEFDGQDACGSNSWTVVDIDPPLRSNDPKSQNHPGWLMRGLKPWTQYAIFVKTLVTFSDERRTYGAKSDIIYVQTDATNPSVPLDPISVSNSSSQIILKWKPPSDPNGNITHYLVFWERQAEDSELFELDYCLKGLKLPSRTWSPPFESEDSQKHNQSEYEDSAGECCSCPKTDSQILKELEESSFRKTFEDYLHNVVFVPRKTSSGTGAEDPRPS
Kindly provide the numeric value in % only, without the unit symbol.

CCOc1cc(C=C2C(=O)NC(=S)NC2=O)ccc1OCc1ccc(C(=O)O)cc1 [IIe] :: 65
Cc1noc(NS(=O)(=O)c2ccc(N)cc2)c1C [Comparative Va, reference compound] :: 98
Cc1ccc(/C=C/C(=O)O)o1 [Comparative IVa, (E)-3-(5-methylfuran-2-yl)acrylic acid, reference compound] :: 91

// remaining activity at 50 µM lookup, key: COc1cc(C=C2C(=O)NC(=S)NC2=O)ccc1OCc1cccc(C(=O)O)c1 [IIc] 75

Field entry: O=C1NC(=S)NC(=O)C1=Cc1ccc(OCc2cccc(C(=O)O)c2)cc1 [IId] 69

Field entry: CCOc1ccc(/C=C2/C(=O)NC(=S)N(c3ccccc3)C2=O)cc1C(=O)O [IIf] 65

====

molecular target: IR-Grb14 interaction (Homo sapiens); construct: a vector encoding the insulin receptor fused to the luciferase (IR-Luc); made in house; host or cells: HEK293T (transfected); IR-Luc was partially purified on wheat germ lectin sepharose; Grb14-YFP was used as crude lysate; assay: IR-Luc/Grb14-YFP BRET technique in a cell-free system; assay type: binding; conditions: 50 μM; insulin stimulation (100 nM)
Listing: % BRET signal/DMSO control of selected molecules

Some solved cases for reference:
CCOc1cc(C=C2C(=O)NC(=O)NC2=O)ccc1OCc1cccc(C(=O)O)c1 [Comparative D] :: 121% (+/−8%)
CCOc1cc(C=C2C(=O)NC(=O)NC2=O)ccc1OCc1cccc(C(=O)O)c1 [Comparative C] :: 103% (+/−8%)
CCOc1cc(C=C2C(=O)NC(=O)NC2=O)ccc1OCc1cccc(C(=O)O)c1 [Comparative F] :: 93% (+/−24%)
CCOc1cc(C=C2C(=O)NC(=O)NC2=O)ccc1OCc1cccc(C(=O)O)c1 [Comparative B] :: 93% (+/−7%)
CCOc1cc(C=C2C(=O)NC(=O)NC2=O)ccc1OCc1cccc(C(=O)O)c1 [Comparative A] :: 103% (+/−15%)

// % BRET signal/DMSO control lookup, key: CCOc1cc(C=C2C(=O)NC(=O)NC2=O)ccc1OCc1cccc(C(=O)O)c1 [Comparative E] 98% (+/−9%)

====

tested on: PI3K/Akt pathway; assay: Luc-Akt-PH/YFP-membrane BRET in HEK293T cells (recruitment of Akt to the membrane); type: cell-based; conditions: without insulin
READOUT KIND: BRET delta

Cc1ccc(/C=C/C(=O)Nc2ccc(S(=O)(=O)Nc3onc(C)c3C)cc2)o1 :: 86 (+/−41)
O=C1NC(=S)NC(=O)C1=Cc1ccc(OCc2cccc(C(=O)O)c2)cc1 :: 67 (+/−33)
CCc1ccc(/C=C/C(=O)Nc2ccc(S(=O)(=O)Nc3onc(C)c3C)cc2)o1 :: 119 (+/−26)

Param readout = BRET delta; param system = PI3K/Akt pathway; param query = CCOc1cc(C=C2C(=O)NC(=S)NC2=O)ccc1OCc1ccc(C(=O)O)cc1 ; response: value 96 (+/−50)

Field entry: CCOc1ccc(/C=C2/C(=O)NC(=S)N(c3ccccc3)C2=O)cc1C(=O)O 54 (+/−44)
